- assay.info: Tacrolimus whole blood concentration, trough and 12-h AUC after kidney transplantation (chemiluminescent microparticle immunoassay)
- Type: in vivo, human
- measurement.conditions: human, whole blood, oral, day 7; all 40 KTRs; mean ± SD; read-out: AUC
observed.property: AUC (ng·h/mL)

>>> observed_result("C=CC[C@@H]1/C=C(\\C)C[C@H](C)C[C@H](OC)[C@H]2O[C@@](O)(C(=O)C(=O)N3CCCC[C@H]3C(=O)O[C@H](/C(C)=C/[C@@H]3CC[C@@H](O)[C@H](OC)C3)[C@H](C)[C@@H](O)CC1=O)[C@H](C)C[C@@H]2OC [Tacrolimus]")
154

---

- assay.info: Tacrolimus whole blood concentration, trough and 12-h AUC after kidney transplantation (chemiluminescent microparticle immunoassay)
- Format: in vivo, human
- measurement.conditions: human, whole blood, oral, day 7 post-transplantation; CYP3A5 expressers, placebo (n = 12); mean ± SD
observed.property: C0

>>> observed_result("C=CC[C@@H]1/C=C(\\C)C[C@H](C)C[C@H](OC)[C@H]2O[C@@](O)(C(=O)C(=O)N3CCCC[C@H]3C(=O)O[C@H](/C(C)=C/[C@@H]3CC[C@@H](O)[C@H](OC)C3)[C@H](C)[C@@H](O)CC1=O)[C@H](C)C[C@@H]2OC [Tacrolimus]")
"9.2 ng/mL"
